Target: UniProtKB Q6ZXC0
Sequence (Q6ZXC0 entry or part of it): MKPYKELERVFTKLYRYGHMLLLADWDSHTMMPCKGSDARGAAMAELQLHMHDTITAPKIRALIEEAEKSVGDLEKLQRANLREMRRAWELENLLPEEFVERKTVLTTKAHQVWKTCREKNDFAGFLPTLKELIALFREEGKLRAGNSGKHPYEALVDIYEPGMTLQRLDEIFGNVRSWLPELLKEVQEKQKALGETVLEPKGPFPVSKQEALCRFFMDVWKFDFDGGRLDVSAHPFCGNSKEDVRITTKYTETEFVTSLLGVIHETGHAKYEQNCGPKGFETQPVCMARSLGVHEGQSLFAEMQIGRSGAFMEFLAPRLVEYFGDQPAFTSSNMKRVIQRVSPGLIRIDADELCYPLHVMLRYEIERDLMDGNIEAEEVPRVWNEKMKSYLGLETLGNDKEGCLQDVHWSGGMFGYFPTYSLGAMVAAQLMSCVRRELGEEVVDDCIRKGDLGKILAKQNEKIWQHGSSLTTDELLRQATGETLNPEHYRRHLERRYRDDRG
Assay: Continuous fluorogenic (FRET) TcMCP-1 assay with Abz-LKFK(Dnp)-OH, primary and secondary screening
Format: biochemical
Details: single inhibitor concentration 25 µM
Protocol: TcMCP-1 (MEROPS ID: M32.003) and TbMCP-1 were expressed as GST fusion proteins in E. coli BL21 (DE3) Codon Plus and purified as previously described. […] Then, 40 μL of 100 mM MOPS, 0,01% Triton X-100 pH 7,2 containing TbMCP-1 (2,50 nM) or TcMCP-1 (0,34 nM) were added to each well, plates were homogenized (30 seg, orbital, medium intensity) and each well subjected to a single autofluorescence read (ex/em = 320/420 nm). […]
metric: inhibition at 25 µM (%)

compound	data value
N#Cc1ccc(S(=O)(=O)N2CCN(Cc3cccc(-c4ccncc4)c3)CC2)cc1	82.1
CCOC(=O)c1cn[nH]c1S(=O)(=O)N1CCC1c1ccccc1 (centres unmarked)	89.1
CS(=O)(=O)c1cccc(CNC(=O)c2cncc(N3CCN(c4ccc(F)cc4)CC3)c2)c1	42.9
Fc1ccccc1N1CC2CCN(c3cccnc3)CC2C1 (centres unmarked)	78.8
O=c1[nH]c(C=Cc2cccc(OCCOc3ccccc3)c2)nc(O)c1[N+](=O)[O-]	85
